assay: Inhibitory activity against rabbit muscle glycogen phosphorylase a in the absence of AMP
Endpoint: pKi
By convention, pKi is the negative base-10 log of a molar concentration.

Would you kindly share the measured pKi for "CCN1C(C)=C(C(=O)OC(C)C)[C@@H](c2ccccc2)C(C(=O)O)=C1C(=O)O" ?
7.96

Where these numbers come from: BindingDB's records for doi:10.1021/jm031121n
